src = PubChem BioAssay (NCI)

- System: K-562 leukemia
- METHOD DESCRIPTION: NCI-60 one-dose screen, 48 h (100 = growth as untreated, 0 = no growth, -100 = all killed)
- PROTOCOL CONDITIONS: 10 µM unless noted
About 83,000 compounds went through this panel and 20% of them were active in at least one assay; those are over-represented in the sample as a whole.
Returns: string. Value is class 1 if measured growth is below 10%, and class 0 if it is greater than or equal to it.

compound=COc1ccc2nc3nc4ccc[nH]c4cc3c2c1 group="class 0"
compound=COc1cccc2c1-c1ccccc1C2=O group="class 1"
compound=Cc1nccc2c3ccc(OCc4cn(-c5ccc(Cl)cc5)nn4)cc3n(CC(C)C)c12 group="class 1"
compound=CCN(CC)CC#CCOC(=O)[C@]1(C)CCC[C@]2(C)[C@H]3C[C@H]4C(C(C)C)=C[C@]3(CC[C@H]21)[C@@H]1C(=O)CCC(=O)[C@@H]14 group="class 0"
compound=COc1ccc2nc3c(n2c1)C(=O)C(=O)c1ccccc1-3 group="class 1"
compound=COc1ccc(/C=C/C(=O)Nc2ncnc3nc[nH]c23)cc1 group="class 0"
compound=O=c1[nH]nc(-c2ccc(Br)cc2)c2sc(NC(=S)Nc3ccc(Cl)cc3)nc12 group="class 0"
compound=O=C1c2ccccc2C(=O)c2c1oc1c2c(=O)[nH]c2ccc(Cl)cc21 group="class 0"
compound=O=C1C(=O)c2c(nc3ccc(C(F)(F)F)cn23)-c2ccccc21 group="class 1"
compound=COC(=O)c1cncc(C(=O)Nc2ccc(-n3cnc4ccccc43)cc2)c1 group="class 0"
compound=O=S(=O)(O)c1ccc(N=NSc2ccc3ccccc3c2)cc1 group="class 0"
compound=CCCNc1nc(C)[nH]c(=O)c1S group="class 0"
compound=CCOC(=O)c1c(-c2ccc(O)cc2)c(C#N)c2c(C#N)c(N)nn2c1N group="class 0"
compound="COc1ccc(C2=NN(c3ccc(S(N)(=O)=O)cc3)C(c3ccc(Cl)cc3)C2)c(O)c1 (stereo not drawn)" group="class 0"
compound=N#Cc1c(-c2ccc(F)cc2)c(C#N)c2c(C#N)c(N)nn2c1N group="class 0"
compound=O=C(Nc1nc2ccc(C(F)(F)F)cc2s1)c1cc(Cl)ccc1O group="class 1"
compound="CCCS(=O)(=O)Nc1ccc(F)c(C(=O)c2c[nH]c3ncc(-c4ccc(OCCCC5CCCCN5)nc4)cc23)c1F (stereo not drawn)" group="class 0"
compound="COc1ccc(C2N(c3cc(OC)c(OC)c(OC)c3)C(=O)C2(F)F)cc1F (stereo not drawn)" group="class 0"
compound=COc1ccc(-c2cc(-c3nnc(SCC(=O)Nc4ccc(/C(C)=N\O)cc4)o3)c3ccccc3n2)cc1 group="class 0"
compound=COc1cc(NC(=O)Nc2cnc(Nc3ccc(N4CCOCC4)cc3)nc2Oc2ccc(F)cc2)cc(OC)c1 group="class 0"
compound=COc1cc2c(cc1OCCCOc1cc3c(cc1OC)C(=O)N1CC(F)(F)C[C@H]1C=N3)N=C[C@@H]1CC(F)(F)CN1C2=O group="class 1"
compound=C=C(C)[C@@H]1CC[C@]2(C(=O)O)CC[C@]3(C)[C@H](CC[C@@H]4[C@@]5(C)C[C@@H](CC#Cc6ccccc6)C(=O)C(C)(C)[C@@H]5CC[C@]43C)[C@@H]12 group="class 0"
compound=C=C1C(=O)O[C@H]2[C@H]1CC/C(COC(=O)CCCCCCC(=O)OC/C1=C/CC[C@@]3(C)O[C@H]3[C@H]3OC(=O)C(=C)[C@@H]3CC1)=C\CC[C@@]1(C)O[C@@H]21 group="class 1"
compound=CS(=O)(=O)O[C@@H]1C(=O)N(c2cc3c4ccccc4ccc3c3ccccc23)[C@H]1c1ccc(F)cn1 group="class 0"
compound=Oc1ccccc1-c1nc2c3ccccc3c3ccccc3c2o1 group="class 0"
compound=Nc1ccccc1NC(=O)c1ccc(CSc2nc(N3CCOCC3)c3cccn3n2)cc1 group="class 1"

###

- System: OVCAR-3 ovarian
- METHOD DESCRIPTION: NCI-60 one-dose screen, 48 h
- PROTOCOL CONDITIONS: 10 µM unless noted
The panel holds about 83,000 compounds, 20% with a hit somewhere; the sample as a whole holds those more often. Calls of active or inactive are those of the source. The calls were made as follows: active = growth percent below 10; inactive = the rest.
Labels: active, inactive

compound=C#C[C@@]1(O)[C@@H](CO)O[C@@H](n2ccc3c(N)ncnc32)[C@@H]1O group=inactive
compound=CN(C)CCCn1c2c(c3cc(-c4ccco4)ccc3c1=O)C(=O)c1ccccc1-2 group=inactive
compound="O=C1NN(c2ccccc2)C(c2ccc3c(c2)OCO3)N2CCC[C@@H]12 (stereo not given in full)" group=inactive
compound="O=C1CCC23OC(C(O)c4ccccc4N12)C1C(Br)=NOC13 (stereo not given)" group=inactive
compound=N#Cc1c(-c2ccc(F)cc2)nc(N/N=C/c2cccc(O)c2)nc1N1CCOCC1 group=inactive
compound=C=C(C)[C@@H]1CC[C@]2(C(=O)N3CCN(C)CC3)CC[C@]3(C)[C@H](CC[C@@H]4[C@@]5(C)C/C(=C/c6ccco6)C(=O)C(C)(C)[C@@H]5CC[C@]43C)[C@@H]12 group=inactive
compound=Nc1c(C(=O)Nc2ccccn2)sc2nc3c(cc12)CCCC3 group=inactive
compound=O=c1cc(/C=N\Nc2nc(-c3ccc(Cl)cc3Cl)cs2)c2cc(Cl)ccc2o1 group=inactive
compound=COc1cccc2c1-c1ccccc1C2=O group=active
compound=Nc1c(C(=O)Nc2cccc3ccccc23)sc2nc3c(cc12)CCCCC3 group=active

###

- System: SF-295 CNS
- METHOD DESCRIPTION: NCI-60 one-dose screen, 48 h (100 = growth as untreated, 0 = no growth, -100 = all killed)
- PROTOCOL CONDITIONS: 10 µM unless noted
The panel holds about 83,000 compounds, 20% with a hit somewhere; the sample as a whole holds those more often.
METRIC NAME: growth (%)

molecule="COc1cc(C2=NN(C(C)=O)C(c3cccc(Nc4ccnc5cc(C(F)(F)F)ccc45)c3)C2)cc(OC)c1OC (centres undefined)" metric_name=growth value_measured=53.8
molecule="COc1cc(C2=NNC(c3ccc(N(C)C)cc3)C2)cc(OC)c1OC (centres undefined)" metric_name=growth value_measured=30.3
molecule="CCCCCCC/C=C/[C@H]1O[C@]23C(=O)C[C@@]4(C[C@@H](OC5OC(CO)C(O)C(O)C5O)C[C@@H]4[C@H]2C=C1C)OC3=O (some centres undefined)" metric_name=growth value_measured=58.5
molecule=N#C/C(=C/c1ccc(O)c([N+](=O)[O-])c1)c1nc(-c2ccc([N+](=O)[O-])cc2)cs1 metric_name=growth value_measured=29.6

###

- Test system: DU-145 prostate
- METHOD DESCRIPTION: NCI-60 one-dose screen, 48 h (100 = growth as untreated, 0 = no growth, -100 = all killed)
- PROTOCOL CONDITIONS: 10 µM unless noted
About 83,000 compounds went through this panel and 20% of them were active in at least one assay; those are over-represented in the sample as a whole.
Listing of entries alongside the reported growth.
METRIC NAME: growth (%)

compound=COc1cc(-c2csc(NC(=O)Nc3ccc(C(F)(F)F)cc3)n2)cc(OC)c1OC value_measured=20.8
compound=N#Cc1ccc(N2Cc3cc(Cl)ccc3OC3=C2C(=O)N(Cc2ccc(F)cc2)C3=O)cc1 value_measured=-91.8
compound=CCc1n(Cc2ccc3ccccc3c2)c2ccccc2[n+]1Cc1ccc2ccccc2c1 value_measured=67.7
compound=S=C(Nc1ccccc1)c1ccccn1 value_measured=120
compound="COc1ccc(C(C)c2cc(OC)c(OC)c(OC)c2)cc1 (stereo unspecified)" value_measured=9.97
compound=NC(=O)c1ccc2nc3c(n2c1)C(=O)C(=O)c1ccccc1-3 value_measured=-96.3
compound=C[C@H](Oc1cc(-c2cnn(C3CCNCC3)c2)cnc1N)c1c(Cl)ccc(F)c1Cl value_measured=77.8
compound=CC(=O)O[C@@H]1C[C@]2(C)[C@H]3[C@H](O)C[C@@H]4C5=CC(C)(C)CC[C@]5(C)CC[C@@]4(C)[C@]3(C)CC[C@H]2C(C)(C)[C@H]1O value_measured=107
compound=O=c1[nH]c(-c2cccc(F)c2)cc2cc(F)ccc12 value_measured=30.1
compound=COc1ccc(-c2cs/c(=N\N=C\c3ccc(O)cc3O)n2/N=C/c2ccc(O)cc2O)cc1 value_measured=4.25
compound=COc1cc(N=Nc2cc(S(=O)(=O)O)cc3cc(S(=O)(=O)O)cc(O)c23)c(C)cc1N=Nc1c(S(=O)(=O)O)cc2cc(Nc3ccccc3)ccc2c1O value_measured=103
compound=C=C(C)[C@@H]1CC[C@]2(C(=O)OCCCC[P+](c3ccccc3)(c3ccccc3)c3ccccc3)CC[C@]3(C)[C@H](CC[C@@H]4[C@@]5(C)CC[C@H](OC(=O)C(Cl)Cl)C(C)(C)[C@@H]5CC[C@]43C)[C@@H]12 value_measured=14.4
compound=C=C(C)[C@@H]1CC[C@]2(C(=O)n3ccnc3)CC[C@]3(C)[C@H](CC[C@@H]4[C@@]5(C)CCCNC(C)(C)[C@@H]5CC[C@]43C)[C@@H]12 value_measured=37
compound=Cc1nccc2c3ccc(OCc4cn(-c5ccc(Br)cc5)nn4)cc3n(CC(C)C)c12 value_measured=76
compound=COc1ccc2nc(-c3ccc(OC)c(OC)c3)cc(-c3nnc(SCC(=O)Nc4ccc(/C(C)=N\O)cc4)n3-c3ccccc3)c2c1 value_measured=83.1
compound="O=C1CCC23OC(c4ccccc4N12)C(O)C(O)C3O (stereo unspecified)" value_measured=107
compound="COc1ccc(C2N(c3cc(OC)c(OC)c(OC)c3)C(=O)C2(F)F)cc1F (stereo unspecified)" value_measured=25.2
compound="OCCNc1nc(NCCO)nc(Nc2ccc(C3=NN(c4cc(Cl)cc(Cl)c4)C(c4ccc(Cl)cc4)C3)cc2)n1 (stereo unspecified)" value_measured=0.477
compound=CC(=O)c1c(OCC#N)ccc2c(C)cc(=O)oc12 value_measured=114
compound="Cc1ccc(C(=O)/C(=C/c2ccc([N+](=O)[O-])cc2)S(=O)Cc2ccccc2)cc1 (stereo unspecified)" value_measured=4.09
compound=C=C1C(=O)O[C@H]2[C@H]1CC/C(COC(=O)c1c[nH]c3ccccc13)=C\CC[C@@]1(C)O[C@@H]21 value_measured=-68.6
compound=COc1ccc2[nH]c(=O)c(/C=C/C(=O)c3ccccc3OC)cc2c1 value_measured=10.8
compound=C#Cc1ccccc1NC(=O)c1sc2nc3c(cc2c1N)CCCCC3 value_measured=104
compound=Nc1c(C(=O)Nc2ccccc2)sc2nc3c(cc12)CN(C(=O)OCc1ccccc1)CC3 value_measured=59.4
compound=CCOCc1nc2ccccc2c(=O)[nH]1 value_measured=107
compound=C=CCn1c(SCC(=O)Nc2ccc(C(=O)/C=C/c3cc(OC)c(OC)c(OC)c3)cc2)nnc1-c1ccc(Cl)cc1 value_measured=10.8
compound=Cc1cc(C)cc(Nc2nccc(-c3c(-c4ccc(F)cc4)ncn3C3CCNCC3)n2)c1 value_measured=9.38
compound=Nc1c(C(=O)Nc2ccccn2)sc2nc3c(cc12)C(=O)CCC3 value_measured=5.74
compound="CC(C)Cc1cc(CNC(=O)C2[C@H]3CN(C(=O)c4ccccc4)C[C@@H]23)nn1-c1ccccc1 (stereo partly specified)" value_measured=100
compound=CCOC(=O)c1c(C)nc2c(c1N)/C(=C/c1ccccn1)C(=O)N2Cc1ccccc1 value_measured=12.6
compound=O=C1CS/C(=N/c2nnc(-c3ccc(O)cc3)s2)N1 value_measured=110
